Hi there, I'd appreciate the recorded IC50 for every entry that follows.
Test system: IDH1 mutant (R132H) (Homo sapiens, UniProt O75874, R132H)
Sequence (O75874 whole entry R132H): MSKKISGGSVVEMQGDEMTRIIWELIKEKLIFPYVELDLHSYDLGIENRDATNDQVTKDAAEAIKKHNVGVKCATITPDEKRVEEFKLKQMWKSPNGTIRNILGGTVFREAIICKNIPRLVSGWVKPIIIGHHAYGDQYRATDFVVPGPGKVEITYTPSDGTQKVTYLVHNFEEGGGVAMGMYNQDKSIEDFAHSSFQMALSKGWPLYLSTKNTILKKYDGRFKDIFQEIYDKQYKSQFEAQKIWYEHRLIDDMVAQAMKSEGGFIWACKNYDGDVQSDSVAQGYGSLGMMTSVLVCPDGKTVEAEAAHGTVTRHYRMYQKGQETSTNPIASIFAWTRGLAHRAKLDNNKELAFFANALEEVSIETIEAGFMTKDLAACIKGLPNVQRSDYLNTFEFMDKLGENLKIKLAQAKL
Experiment notes: Mutant IDH1-R132H Fluorescence Assay (Resazurin based)
Condition context: 10 nM IDH1 R132H, 4 mM α-ketoglutarate, NADPH, 1.5 h at room temperature

Inquiry: So what does the record say about IC50 for CC[C@H]1COC(=O)N1c1nc(C)nc(N[C@H](C)c2cnc3ccc(Cl)nn23)n1 ?
Reply text: > 30000 nM

Inquiry: Param item = CC(C)[C@H]1COC(=O)N1c1ncnc(N[C@H](C)c2cn(-c3ccc(Cl)cc3)cn2)n1 ; retrieve measured IC50.
Reply text: 24500 nM

Inquiry: Return reported IC50; argument: CC[C@H]1COC(=O)N1c1nc(C)nc(NCc2cc3cc(Cl)ccc3[nH]c2=O)n1
Reply text: 2070 nM

Inquiry: Field request: IC50 | item: CC[C@H]1COC(=O)N1c1nc(C)nc(N[C@@H](C)c2cc3cc(Cl)cnc3[nH]c2=O)n1
Reply text: > 30000 nM

Inquiry: # input compound: CC[C@H]1COC(=O)N1c1nc(C)nc(N[C@H](C)c2cc3cc(Cl)ccc3[nH]c2=O)n1 ; wanted: its IC50
Reply text: > 30000 nM

Inquiry: Item Cc1nc(N[C@@H](C)c2ccc(Oc3ccccc3)cc2)nc(N2C(=O)OC[C@@H]2C(C)C)n1 has what recorded IC50?
Reply text: 396 nM

Inquiry: If you can, please state the reported IC50 value of CC[C@H]1COC(=O)N1c1nc(C)nc(N[C@@H](C)c2cc(C)c(-c3ccnc(C(F)(F)F)c3)cn2)n1 .
Reply text: 1210 nM
